These entries and their values trace back to a melting point compilation (Tetko et al.; mined from patent text by program, amines drawn as free bases though some values may be those of a salt).

Observed Property: melting point

{"columns": ["Compound", "Recorded Result"],
 "data": [
  ["O[C@@H]1CN=C(c2cccc(Cl)c2)O[C@H]1c1ccccc1 (racemic)", "100 °C"],
  ["N#Cc1nc(N)c(Cl)nc1C#N", "205 to 208 °C"],
  ["c1ccc(COc2ccc(N3c4ccccc4Sc4ccccc43)cc2)cc1", "144 to 146 °C"],
  ["COc1ccccc1COc1ccc(S(=O)(=O)c2ccc(C)nc2Nc2cc(OC)c(OC)cc2Cl)cc1", "149 to 151 °C"],
  ["COc1ccccc1N1CCN(CCn2nc(-c3c(-c4ccccc4)nn4ccccc34)ccc2=O)CC1", "120 to 125 °C"],
  ["CC(C)(C)OC(=O)N1CCC2(CC1)CC(=O)N(OCC#N)C2=O", "138 to 139 °C"],
  ["CCOC(=O)C(C(=O)OCC)=C1NC(=O)N(Cc2ccccc2)C1=O", "149 to 151 °C"],
  ["COc1cc2nc(N)nc(-c3ccc(Br)cc3)c2cc1OC", "270 to 272 °C"],
  ["O=Cc1c2n(c3cc4c(cc13)OCO4)CCC2", "169 to 170 °C"],
  ["CNC(=O)c1ccc(-c2ccc3oc(C4CCN(C(=O)OC(C)C)CC4)nc3c2)cc1C", "151 to 154 °C"],
  ["c1ccc(-c2ccc(CCCN3CCN(c4ccccc4)CC3)o2)cc1", "95 °C"],
  ["CC1=C(C(=O)O)C(c2ccc(F)c(Br)c2)C2=C(CCC2=O)N1 (stereo not given)", "211 to 214 °C"],
  ["CC(=O)NCC1CN(c2ccc(N3CCN(C4=NC(=O)CS4)CC3)c(F)c2)C(=O)O1 (stereo not given)", "225 to 227 °C"],
  ["O=C(/C=C/C=C/c1ccccc1)NCCSCCC(=O)NO", "158 to 160 °C"],
  ["CC(C)NCC(O)Cc1ccc([N+](=O)[O-])c(C2OCCO2)c1 (stereo not given)", "97 to 99 °C"],
  ["CCCCCCCCC(=O)Nc1ccn(C2OC(CO)C(O)C2O)c(=O)n1 (stereo not given)", "150 to 152 °C"],
  ["CC1=CC(OCc2ccccc2)(OC(=O)c2ccc(Br)c(OCCn3cnnn3)c2C)N(C)N1 (stereo not given)", "122 to 125 °C"],
  ["CC(C)C1Sc2ccccc2NC(=O)C1NC(=O)C(F)(F)F (stereo not given)", "212 to 215 °C"],
  ["Cc1ccc(C)n1CCNC(=O)CN(C)C", "63 to 65 °C"],
  ["CCOc1nn(Cc2ccc(OCc3csc(-c4ccccc4)n3)nc2)cc1CCC(=O)O", "121 to 122 °C"],
  ["COc1ccc2c(c1)CCN(Cc1cnc(C)nc1N)C2", "142 to 143 °C"],
  ["Cc1nnc(SCC(=O)C23CC4CC(CC(C4)C2)C3)n1C(C)C", "119 to 120 °C"],
  ["NS(=O)(=O)c1cccc(-c2noc(-c3cnn4c(C5CC5)cc(-c5ccc(C(F)(F)F)cc5)nc34)n2)c1", "277 °C"],
  ["CN(C)c1ccc(C=C2SC(N3CCCC3)=NC2=O)cc1-c1cc(F)c(O)c(C23CC4CC(CC(C4)C2)C3)c1", "294 to 298 °C"],
  ["N#Cc1ccc(-c2ccc(-c3ccc(-c4ccc(C#N)cc4)o3)o2)cc1", "298 to 299 °C"],
  ["CNc1ccc(C2OC(C)(C)N=C2c2ccccc2)cc1 (stereo not given)", "138 to 139 °C"],
  ["COCc1ncn2c1CN(C)C(=O)c1c(Cl)cccc1-2", "143 to 144 °C"],
  ["CNc1cc(Oc2ccc3ncccc3c2)ncn1", "173 °C"],
  ["CC(C)CCN1C(=O)C(NC(=O)n2ccnc2)C(=O)N(c2ccccc2)c2ccccc21 (stereo not given)", "62 to 65 °C"],
  ["OCc1nn(Cc2ccccc2)c2ccccc12", "85 to 86 °C"],
  ["COc1ccc2[nH]c3c([N+](=O)[O-])ccc(Cl)c3c(=O)c2c1", "262 to 264 °C"],
  ["CCCc1ccc2nc(C(=O)OCC)cn2n1", "54 to 54.5 °C"],
  ["CCOC(=O)C(Cc1c[nH]c2c(F)cccc12)(NC=O)C(=O)OCC", "164 to 166 °C"],
  ["O=c1c(CCCc2ccccn2)cc2cccnc2n1-c1cccc([N+](=O)[O-])c1", "201 to 202 °C"],
  ["Cn1ncc2c1-c1c(Sc3ccccc3)sc(C(=O)O)c1CC2", "205 to 206 °C"],
  ["COc1ccc(C2CC3(C)C(CC45OCCOC43OCCO5)C3CC(C)C4(O)CCCCC4C23)cc1 (stereo not given)", "168 to 169 °C"],
  ["CC(=O)C(C)Oc1ccc2[nH]c(C)c(C(=O)OCc3ccccc3)c2c1 (stereo not given)", "94 to 98 °C"],
  ["CN(C)C(=O)N1N=C2c3cc(F)ccc3OC[C@@H]2[C@@H]1c1ccccc1 (racemic)", "117 °C"],
  ["CCCCCCCCCCCCCCCCCCOc1cc(OCCCOc2ccccc2)cc(C(=O)OCc2ccccc2)c1", "46 to 47 °C"],
  ["COC(=O)c1ccccc1NC(=O)Cc1ccccc1C", "80 to 82 °C"]
]}
